Quick reference for IC50 among some compounds
Target: Human TRPC6 (Homo sapiens, UniProt Q9Y210)
Construct: expressed in transfected cells
Sequence (Q9Y210 1-931): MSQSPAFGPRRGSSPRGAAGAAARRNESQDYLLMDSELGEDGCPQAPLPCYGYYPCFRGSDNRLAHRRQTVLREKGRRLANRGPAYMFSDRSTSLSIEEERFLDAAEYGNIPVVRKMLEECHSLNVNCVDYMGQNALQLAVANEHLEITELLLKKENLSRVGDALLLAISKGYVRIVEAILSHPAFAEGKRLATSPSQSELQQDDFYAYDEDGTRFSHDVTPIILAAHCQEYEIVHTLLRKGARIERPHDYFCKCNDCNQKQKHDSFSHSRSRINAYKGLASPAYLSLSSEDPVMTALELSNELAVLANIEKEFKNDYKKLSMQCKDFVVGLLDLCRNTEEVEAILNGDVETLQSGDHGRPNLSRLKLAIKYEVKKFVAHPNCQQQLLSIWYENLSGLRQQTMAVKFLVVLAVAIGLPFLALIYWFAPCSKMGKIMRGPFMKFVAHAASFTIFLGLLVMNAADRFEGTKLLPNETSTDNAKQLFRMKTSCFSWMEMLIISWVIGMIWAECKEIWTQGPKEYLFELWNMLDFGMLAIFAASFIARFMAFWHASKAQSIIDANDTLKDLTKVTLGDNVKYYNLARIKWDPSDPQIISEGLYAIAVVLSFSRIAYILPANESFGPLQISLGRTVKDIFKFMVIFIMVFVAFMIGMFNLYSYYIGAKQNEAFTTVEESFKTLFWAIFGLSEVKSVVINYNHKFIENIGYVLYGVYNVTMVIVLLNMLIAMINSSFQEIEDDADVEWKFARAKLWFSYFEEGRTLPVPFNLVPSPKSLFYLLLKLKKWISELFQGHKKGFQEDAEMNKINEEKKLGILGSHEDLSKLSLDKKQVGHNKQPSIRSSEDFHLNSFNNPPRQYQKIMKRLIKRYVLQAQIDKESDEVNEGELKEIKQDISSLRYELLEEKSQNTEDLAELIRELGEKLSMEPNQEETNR
Assay: Evaluation of TRPC6 channel inhibitory activity (1), FLIPR Calcium 5 Assay Kit, OAG stimulation (Compound Nos. 1-1293)
Assay type: cell-based
Conditions: Human TRPC6 stably-expressing cells, OAG 30 μM, FLIPR Calcium 5 Assay Kit; read-out: Inhibitory activity (pIC50 class) (converted)

{"columns": ["compound", "IC50"],
 "data": [
  ["Cn1nc(N2CCOCC2)cc1Oc1cc(C#N)ccc1-c1ncc(CCN)cn1 [compound 771]", "0.01 to 1 µM"]
]}

Q: Quick one: IC50 for CC(C)OCCN(C)c1cc(Oc2cc(C#N)ccc2-c2ncc(CCN)cn2)n(C)n1 [compound 863] ?
Result: > 1 µM

Q: Repeat with N#Cc1ccc(-c2ncc(CCN)cn2)c(Cc2cnn(-c3ccccn3)c2)c1 [compound 1197]
Result: 0.01 to 1 µM

Q: Repeat with Cc1nc(Oc2cc(C#N)ccc2-c2ccc(N3CCNCC3)cc2)cc(N2CCOCC2)n1 [Compound 12]
Result: > 1 µM
